- System: NCI-H650
- protocol-text: relative viability (nuclei count vs DMSO), 5 days (fraction); higher = more cells survive
- details: first compound 0.4 µM
experimental-endpoint: relative viability
Provide a numeric answer; units are not to be included.

Examples with answers:
| compound | experimental-endpoint | measured-value |
| --- | --- | --- |
| C[C@@H]1CN(CC(=O)Nc2ccc3c(c2)Cc2cccc(-c4cc(=O)cc(N5CCOCC5)o4)c2S3)C[C@H](C)O1 + O=C(CCCCCCC(=O)Nc1ccccc1)NO [Vorinostat] (partner 1 µM) | relative viability | 0.39 |
| C[C@@H]1CN(CC(=O)Nc2ccc3c(c2)Cc2cccc(-c4cc(=O)cc(N5CCOCC5)o4)c2S3)C[C@H](C)O1 + COc1cccc2cc(-c3nc([C@H]4CC[C@H](C(=O)O)CC4)n4ncnc(N)c34)[nH]c12 [OSI-027] (partner 0.5 µM) | relative viability | 0.51 |
| C[C@@H]1CN(CC(=O)Nc2ccc3c(c2)Cc2cccc(-c4cc(=O)cc(N5CCOCC5)o4)c2S3)C[C@H](C)O1 + CC(C)C[C@H](NC(=O)[C@H](Cc1ccccc1)NC(=O)c1cnccn1)B(O)O [Bortezomib] (partner 0.002 µM) | relative viability | 0.761 |
| COc1cc(N2CCC(C(N)=O)CC2)ccc1Nc1nc(N)c(Cl)c(Nc2ccccc2S(=O)(=O)C(C)C)n1 [HG-5-88-01] + Nc1ncn([C@H]2C[C@H](O)[C@@H](CO)O2)c(=O)n1 [Decitabine] (partner 2 µM) | relative viability | 0.435 |

# next compound below
INPUT: # query: relative viability of entry Clc1ccc(Nc2nnc(Cc3ccncc3)c3ccccc23)cc1 [Vatalanib] + NC(=O)Nc1cc(-c2cccc(F)c2)sc1C(=O)N[C@H]1CCCNC1 [AZD7762] (partner 0.2 µM)
OUTPUT: 0.937

---

- Test system: PC-3 [JPC-3]
- protocol-text: relative viability (nuclei count vs DMSO), 5 days (fraction); higher = more cells survive
- details: first compound 0.08 µM
Measured relative viability values are reported for all entries that follow.
Provide a numeric answer; units are not to be included.

Examples with answers:
| compound | experimental-endpoint | measured-value |
| --- | --- | --- |
| CCCCCCCCCCCC1=C(O)C(=O)C=C(O)C1=O [Embelin] + Cc1nc(Nc2ncc(C(=O)Nc3c(C)cccc3Cl)s2)cc(N2CCN(CCO)CC2)n1 [Dasatinib] (partner 0.075 µM) | relative viability | 1.02 |
| CCCCCCCCCCCC1=C(O)C(=O)C=C(O)C1=O [Embelin] + O=C(c1cc(Cc2n[nH]c(=O)c3ccccc23)ccc1F)N1CCN(C(=O)C2CC2)CC1 [Olaparib] (partner 8 µM) | relative viability | 1.12 |

# next compound below
INPUT: # query: relative viability of entry CCCCCCCCCCCC1=C(O)C(=O)C=C(O)C1=O [Embelin] + Nc1ncn([C@H]2C[C@H](O)[C@@H](CO)O2)c(=O)n1 [Decitabine] (partner 2 µM)
OUTPUT: 0.776

---

- System: HCC-44
- protocol-text: relative viability (nuclei count vs DMSO), 5 days (fraction); higher = more cells survive
- details: first compound 1.265 µM
experimental-endpoint: relative viability
Provide a numeric answer; units are not to be included.

Examples with answers:
| molecule | study-system | measured-value |
| --- | --- | --- |
| COc1cc(N2CCC(C(N)=O)CC2)ccc1Nc1nc(N)c(Cl)c(Nc2ccccc2S(=O)(=O)C(C)C)n1 [HG-5-88-01] + C[C@@H](Oc1cc(-c2cnn(C3CCNCC3)c2)cnc1N)c1c(Cl)ccc(F)c1Cl [Crizotinib] (partner 1 µM) | HCC-44 | 0.611 |
| COc1cc(N2CCC(C(N)=O)CC2)ccc1Nc1nc(N)c(Cl)c(Nc2ccccc2S(=O)(=O)C(C)C)n1 [HG-5-88-01] + CC(=O)Nc1cccc(-n2c(=O)n(C3CC3)c(=O)c3c(Nc4ccc(I)cc4F)n(C)c(=O)c(C)c32)c1 [Trametinib] (partner 0.02 µM) | HCC-44 | 1.07 |
| COc1cc(N2CCC(C(N)=O)CC2)ccc1Nc1nc(N)c(Cl)c(Nc2ccccc2S(=O)(=O)C(C)C)n1 [HG-5-88-01] + Cc1nc(NC(=O)N2CCC[C@H]2C(N)=O)sc1-c1ccnc(C(C)(C)C(F)(F)F)c1 [Alpelisib] (partner 2 µM) | HCC-44 | 0.68 |
| COc1cc(N2CCC(C(N)=O)CC2)ccc1Nc1nc(N)c(Cl)c(Nc2ccccc2S(=O)(=O)C(C)C)n1 [HG-5-88-01] + CC1(C)CCC(c2ccc(Cl)cc2)=C(CN2CCN(c3ccc(C(=O)NS(=O)(=O)c4ccc(N[C@H](CCN5CCOCC5)CSc5ccccc5)c(S(=O)(=O)C(F)(F)F)c4)cc3)CC2)C1 [Navitoclax] (partner 0.5 µM) | HCC-44 | 0.922 |
| COc1cc(N2CCC(C(N)=O)CC2)ccc1Nc1nc(N)c(Cl)c(Nc2ccccc2S(=O)(=O)C(C)C)n1 [HG-5-88-01] + CC(C)C[C@H](NC(=O)[C@H](Cc1ccccc1)NC(=O)c1cnccn1)B(O)O [Bortezomib] (partner 0.002 µM) | HCC-44 | 0.832 |

INPUT: # query: relative viability of entry COc1cc(N2CCC(C(N)=O)CC2)ccc1Nc1nc(N)c(Cl)c(Nc2ccccc2S(=O)(=O)C(C)C)n1 [HG-5-88-01] + CC(=O)c1c(C)c2cnc(Nc3ccc(N4CCNCC4)cn3)nc2n(C2CCCC2)c1=O [Palbociclib] (partner 0.5 µM)
OUTPUT: 0.954

INPUT: # query: relative viability of entry Clc1ccc(Nc2nnc(Cc3ccncc3)c3ccccc23)cc1 [Vatalanib] + N=C(N)NC(=N)NCCc1ccccc1 [Phenformin] (partner 250 µM)
OUTPUT: 0.182

INPUT: # query: relative viability of entry COc1cc(N2CCC(C(N)=O)CC2)ccc1Nc1nc(N)c(Cl)c(Nc2ccccc2S(=O)(=O)C(C)C)n1 [HG-5-88-01] + Nc1nc2[nH]cc(CCc3ccc(C(=O)N[C@@H](CCC(=O)O)C(=O)O)cc3)c2c(=O)[nH]1 [Pemetrexed] (partner 0.2 µM)
OUTPUT: 0.699

INPUT: # query: relative viability of entry Clc1ccc(Nc2nnc(Cc3ccncc3)c3ccccc23)cc1 [Vatalanib] + NC(=O)Nc1cc(-c2cccc(F)c2)sc1C(=O)N[C@H]1CCCNC1 [AZD7762] (partner 0.2 µM)
OUTPUT: 0.983

INPUT: # query: relative viability of entry COc1cc(N2CCC(C(N)=O)CC2)ccc1Nc1nc(N)c(Cl)c(Nc2ccccc2S(=O)(=O)C(C)C)n1 [HG-5-88-01] + O=C(CCCCCCC(=O)Nc1ccccc1)NO [Vorinostat] (partner 1 µM)
OUTPUT: 1.08

src = the supplement of paper PMC10307832
